Entry source: ChEMBL document CHEMBL1961873

Attribute: inhibition
studySystem: MAP kinase-activated protein kinase 3 (Homo sapiens)
details: at 1 µM
Description: GSK_PKIS: MAPKAPK3 mean inhibition at 1 uM [Nanosyn]

smilesRecord: N#Cc1c(NC(=O)c2cccc3ccccc23)sc2c1CCCC2
inhibition: 8.43%
--
smilesRecord: Cc1ccc(NC(=O)c2ccnc(N3CCCC3)c2)cc1-c1ccc(C(=O)NCC2CC2)cc1
inhibition: 30.2%
--
smilesRecord: NCc1ccc(-c2nc(-c3ccc(Cl)c(O)c3)c(-c3ccncc3)[nH]2)cc1
inhibition: 30.9%

---

studySystem: Ribosomal protein S6 kinase alpha-5 (Homo sapiens)
details: at 1 µM
Label rule, in plain words: inhibition of 7% and up is Met, under 7% is Not met.

compound: CCCN1CCC=C(c2ccc(Nc3nc(Nc4ccccc4C(N)=O)c4cc[nH]c4n3)c(C)c2)C1
studySystem: Ribosomal protein S6 kinase alpha-5 (Homo sapiens)
categoryLabel: Not met

compound: CC1=C(C(=O)Nc2ccc3[nH]ncc3c2)C(c2ccc3ccccc3c2)CC(=O)N1 (stereo unspecified)
studySystem: Ribosomal protein S6 kinase alpha-5 (Homo sapiens)
categoryLabel: Met

compound: Nc1nc(-c2ccc3c(c2)C(=Cc2cc(Br)c(O)c(Br)c2)C(=O)N3)cs1
studySystem: Ribosomal protein S6 kinase alpha-5 (Homo sapiens)
categoryLabel: Not met

compound: O=C1NC(=O)C(c2cccc(Cl)c2)=C1Nc1ccc(O)c(Cl)c1
studySystem: Ribosomal protein S6 kinase alpha-5 (Homo sapiens);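 also: mean inhibition of MSK1, from screening of the GSK PKIS inhibitor set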
categoryLabel: Not met
